Molecular target: T1, rat PTHR endogenously expressed in ROS 17/2.8 cells (rat, UniProt P25961 27-591)
T1 construct: whole, on cells; also called endogenous PTHR; PTHR in ROS 17/2.8 cells
T1 sequence (looked up): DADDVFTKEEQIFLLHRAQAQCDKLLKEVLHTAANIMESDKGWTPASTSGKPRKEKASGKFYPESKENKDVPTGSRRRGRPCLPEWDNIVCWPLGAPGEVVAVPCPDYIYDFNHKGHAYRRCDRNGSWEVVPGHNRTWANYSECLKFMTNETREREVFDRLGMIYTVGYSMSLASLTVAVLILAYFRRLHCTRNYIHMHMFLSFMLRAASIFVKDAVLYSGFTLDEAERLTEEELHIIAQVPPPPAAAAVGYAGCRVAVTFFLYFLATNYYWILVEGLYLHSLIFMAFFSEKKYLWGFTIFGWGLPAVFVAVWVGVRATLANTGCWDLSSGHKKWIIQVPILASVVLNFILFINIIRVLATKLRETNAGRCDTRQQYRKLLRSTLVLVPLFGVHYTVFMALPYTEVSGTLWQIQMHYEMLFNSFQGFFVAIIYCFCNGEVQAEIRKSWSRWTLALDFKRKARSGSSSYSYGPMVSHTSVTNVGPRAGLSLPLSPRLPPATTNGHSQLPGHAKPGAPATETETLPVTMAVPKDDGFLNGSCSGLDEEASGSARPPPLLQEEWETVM
Assay: competition binding, ROS 17/2.8 cells, 125I-PTH(1-34) tracer
Where no end group is shown, it is not given here.
# Y = IC50 below 3 µM (exclusive); N = IC50 at/above 3 µM

A selection of reference data follows.
AVSEIQLMHNLGKHLNSMREVEWLRKKLQDV-NH2 [[Ala^1,Arg^19]hPTH(1-31)NH2 Arg^20→Glu] :: N
AVSEIQLMHNLGKHLNSMRRVEWLRKKEQDV-NH2 [[Ala^1,Arg^19]hPTH(1-31)NH2 Leu^28→Glu] :: N
AVSEIQLMHNLGKHLNSMRRVEWERKKLQDV-NH2 [[Ala^1,Arg^19]hPTH(1-31)NH2 Leu^24→Glu] :: N
AVSEIQLMHNLGKHLNSMRRVEELRKKLQDV-NH2 [[Ala^1,Arg^19]hPTH(1-31)NH2 Trp^23→Glu] :: Y

Let us examine a further case.
Determine if AVSEIQLMHNLGKHLNSMRRVEWLRKKLQDV-NH2 (also called [Ala^1,Arg^19]PTH(1-31)NH2; [Ala^1,Arg^19]PTH(1-31)) [[Ala^1,Arg^19]hPTH(1-31)NH2] shows IC50 strictly lower than 3 µM. Y

Recorded values, source patent US20100081612A1.
